Test: in vivo
Settings: male, Sprague-Dawley, rat, iv, 1 mg/kg
observable: Cmax (ng/mL)
Supply the numeric figure in ng/mL, leaving out any unit text.

Recorded Cmax of O=C(CNC(=O)C1CCC(F)(F)CC1)N[C@H](Cc1ccccc1)C(=O)C(=O)NCc1ccccn1 [Compound 155] , please.
1570

Also check C[C@@H](NC(=O)N1CCC(F)(F)CC1)C(=O)N[C@H](Cc1ccccc1)C(=O)C(=O)NCc1ccccn1 [Compound 296]
1400

And for C[C@@H](NC(=O)[C@@H]1C[C@@H]2[C@H](C1)C2(F)F)C(=O)N[C@H](Cc1ccccc1)C(=O)C(=O)NCc1ccccn1 [Compound 126] ?
1860

Continue with C[C@@H](NC(=O)C1CCC(F)(F)CC1)C(=O)N[C@H](Cc1ccccc1)C(=O)C(=O)NCc1ccccn1 [Compound 145]
1640

Also O=C(CC1CCC(F)(F)CC1)NCC(=O)N[C@H](Cc1ccccc1)C(=O)C(=O)NCc1ccccn1 [Compound 150] , if possible.
2010
